Molecular target: Recombinant human HDAC6 (Homo sapiens, UniProt Q9UBN7)
Construct: full length, MW=159 kDa; GST (N); host or cells: Sf9 insect cells (baculovirus)
Sequence (Q9UBN7 whole entry): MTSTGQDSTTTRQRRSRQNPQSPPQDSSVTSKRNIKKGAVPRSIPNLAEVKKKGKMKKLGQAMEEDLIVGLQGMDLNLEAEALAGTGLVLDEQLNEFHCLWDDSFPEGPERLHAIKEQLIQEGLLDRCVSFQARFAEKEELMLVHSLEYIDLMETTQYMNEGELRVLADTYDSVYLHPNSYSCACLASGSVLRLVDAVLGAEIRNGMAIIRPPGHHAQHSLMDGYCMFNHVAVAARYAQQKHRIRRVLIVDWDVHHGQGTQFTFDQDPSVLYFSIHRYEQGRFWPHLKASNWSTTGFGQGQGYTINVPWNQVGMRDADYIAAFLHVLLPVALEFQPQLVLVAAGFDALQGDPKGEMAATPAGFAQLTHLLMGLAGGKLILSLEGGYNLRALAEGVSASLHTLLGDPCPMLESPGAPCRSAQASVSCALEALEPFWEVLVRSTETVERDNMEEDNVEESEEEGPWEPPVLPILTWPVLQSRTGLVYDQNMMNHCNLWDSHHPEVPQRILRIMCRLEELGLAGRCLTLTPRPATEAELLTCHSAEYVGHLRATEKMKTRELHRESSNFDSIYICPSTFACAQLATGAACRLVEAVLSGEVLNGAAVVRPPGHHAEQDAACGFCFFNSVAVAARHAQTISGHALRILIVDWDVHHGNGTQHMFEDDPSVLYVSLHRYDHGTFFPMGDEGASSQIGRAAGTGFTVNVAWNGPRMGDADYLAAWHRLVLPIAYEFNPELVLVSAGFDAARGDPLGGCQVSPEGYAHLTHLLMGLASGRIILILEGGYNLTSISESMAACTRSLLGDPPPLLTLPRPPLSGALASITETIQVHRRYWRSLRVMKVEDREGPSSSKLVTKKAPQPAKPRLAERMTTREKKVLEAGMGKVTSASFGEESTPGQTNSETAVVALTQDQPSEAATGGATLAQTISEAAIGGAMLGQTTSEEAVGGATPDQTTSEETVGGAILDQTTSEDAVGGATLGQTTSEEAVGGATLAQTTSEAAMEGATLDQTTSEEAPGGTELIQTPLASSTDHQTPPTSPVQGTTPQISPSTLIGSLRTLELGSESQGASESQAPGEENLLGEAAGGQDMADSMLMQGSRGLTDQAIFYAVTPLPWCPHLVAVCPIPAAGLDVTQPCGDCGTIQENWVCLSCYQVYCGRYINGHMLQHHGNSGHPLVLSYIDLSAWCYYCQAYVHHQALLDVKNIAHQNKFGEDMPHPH
Assay: HDAC6 biochemical assay, AMC-labeled peptide substrate
Conditions: HDAC6; read-out: HDAC Isoform IC50 (nM) 6
QUANTITY_KIND: IC50

# annotated cases, reported IC50 shown
// returns reported IC50 for input `Fc1cc(-c2noc(C(F)(F)F)n2)sc1CN(c1cnccn1)c1cnccn1` ≤ 500 nM

Further, for `FC(F)(F)c1nc(-c2ccc(CN(c3cnccn3)c3ccc(CN4CCOCC4)nn3)s2)no1` ? ≤ 500 nM

Next:
// returns reported IC50 for input `Cc1cncnc1N(Cc1ccc(-c2noc(C(F)(F)F)n2)s1)c1cnccn1` ≤ 1000 nM

Hey, just so you know, these numbers are from patent US20210038607A1.
